# System: HS 578T breast
# PROCEDURE TEXT: NCI-60 one-dose screen, 48 h (100 = growth as untreated, 0 = no growth, -100 = all killed)
# CONDITIONS USED: 10 µM unless noted
The panel holds about 83,000 compounds, 20% with a hit somewhere; the sample as a whole holds those more often. The source made the active and inactive calls. The calls were made as follows: active = growth percent below 10; inactive = the rest.
Would you kindly list growth for each of these compounds?

Check HS 578T breast data and give growth for NC(=O)c1ccccc1NC(=O)c1ccccc1Cl . 108% (inactive)

Jot down growth (HS 578T breast) of Nc1cc(Cl)c(S(N)(=O)=O)cc1S(N)(=O)=O . 106% (inactive)

For HS 578T breast, give growth of the listed compound: Cc1cc(C)c(OC(=O)CSc2nc3ccccc3c(=O)n2CCc2ccccc2)cc1C 94.5% (inactive)

Enter recorded growth with HS 578T breast for CC[N+](C)(CC)CCCC(C)Nc1ccnc2cc(Cl)ccc12 (stereo not given) here. 104% (inactive)

Please tell me the measured growth for CSc1nc2c(c(=O)n1C)C(c1ccccc1)C1=C(N2)/C(=C/c2ccccc2)CCC1 (stereo not given) ; system: HS 578T breast. 61% (inactive)

Identify measured growth obtained with HS 578T breast for Clc1nc(Cl)c2ncn(-c3ccccc3)c2n1 . 12.4% (inactive)

Report value: growth, system: HS 578T breast, compound: c1ccc(N2CCN(c3nncc4ccccc34)CC2)nc1 109% (inactive)

Answer briefly: growth recorded on HS 578T breast for CCOC(=O)C1=C(C)N2C(=NC3=C(CCC/C3=C\c3ccc(Cl)cc3)C2c2ccc(Cl)cc2)S1 (stereo not given) 51.7% (inactive)

State, for HS 578T breast, measured growth of the compound listed here: CCCCCCCCCCCCNc1ncnc2[nH]ncc12 92.4% (inactive)

Report growth under test system HS 578T breast for COc1ccc(C(=O)/C=C/c2c(Cl)nc3c(c(C)nn3-c3ccccc3)c2-c2ccc(Br)cc2)cc1 . 113% (inactive)

GET growth where system = HS 578T breast and item = Cc1nnc(Nc2ccc(NC(=O)Nc3ccc(Cl)cc3)cc2)c2ccccc12 3.43% (active)

# lookup: HS 578T breast growth, key = COc1ccc2nc3cc(Cl)ccc3c(Nc3cc(C(C)C)c(O)cc3C)c2c1 65.5% (inactive)

Recall the reported growth of C[n+]1ccc(C#N)c2ccccc21 on HS 578T breast and write it down. 108% (inactive)

// output growth; input CN1C(=O)C(=Cc2cn(Cc3ccccc3)c3ccc(Br)cc23)C(=O)N(C)C1=O ; system HS 578T breast 113% (inactive)

Give growth for CC(C)[C@]12O[C@H]1[C@@H]1O[C@]13[C@]1(O[C@H]1C[C@H]1C4=C(CC[C@@]13C)C(=O)OC4)[C@@H]2OC(=O)CN(C)C tested on HS 578T breast. -0.647% (active)

Please respond with reported growth (system HS 578T breast) for CSc1ncc2ncn(C3OC(CO)C(O)C3O)c2n1 (stereo not given) . 95.2% (inactive)

Send back HS 578T breast growth of COC(=O)CCC1=C(CC(=O)OC)C(C)=N/C1=C\c1[nH]c(-c2ccc[nH]2)cc1OC only. 52.2% (inactive)

GET growth where system = HS 578T breast and item = CC1=NN(c2ccccc2Cl)C(=O)/C1=C\c1cn(S(=O)(=O)c2ccc(C)cc2)c2ccccc12 116% (inactive)

Write down the reported growth (system: HS 578T breast) of Nc1ncc(-c2cnn(C3CCNCC3)c2)cc1-c1nc2cc(Cl)ccc2o1 -68.4% (active)

Look up HS 578T breast data: growth of COc1cc2c(c(OC)c1OC)-c1ccc(NN(C(=O)c3ccccc3)C(=O)c3ccccc3)c(=O)cc1[C@@H](NC(C)=O)CC2 (tested in a mixture with another compound) , then report it. -6.83% (active)
